- Tested on: E. coli ATCC 25922
- Type: cell-based, Escherichia coli
- reportedConditions: (Supplement 2)
Where a SMILES comes first, the peptide text is derived from it. [ ]: non-standard residue; d: D form. The star is where a group is joined. ξ: configuration not given here. Hexanoyl(4ξ-Me) = CCC(C)CCC(=O)*; dOrn = NCCC[C@@H](N)C(=O)O; Orn = NCCC[C@H](N)C(=O)O; OAll = C=CCO*
measure: MIC (µg/mL) against E. coli (ATCC 25922)
Kindly provide the numeric value in µg/mL only, without the unit symbol.

Query C=CCOC(=O)CC[C@H](NC(=O)[C@H](Cc1c[nH]c2ccccc12)NC(=O)[C@@H](CCCN)NC(=O)CNC(=O)[C@H](CCCN)NC(=O)[C@@H](CCCN)NC(=O)[C@@H](Cc1c[nH]c2ccccc12)NC(=O)[C@@H](Cc1ccc(O)cc1)NC(=O)[C@@H](CC(N)=O)NC(=O)CCC(C)CC)C(=O)N[C@H](C(=O)NCC(N)=O)[C@@H](C)CC (stereo partly shown) [Δ12LB (Glu[OAll]9)-NH2 (62)] ({Hexanoyl(4ξ-Me)}-[dN][dY][dW][dOrn][Orn]G[dOrn]WE(OAll)IG-NH2) yields MIC (µg/mL) against E. coli (ATCC 25922) of 4

====

- System: E. coli ATCC 25922
- Type: cell-based, Escherichia coli
- reportedConditions: (Supplement 2)
Where a SMILES comes first, the peptide text is derived from it. [ ]: non-standard residue; d: D form. The star is where a group is joined. Octanoyl(7-Me) = CC(C)CCCCCC(=O)*; dOrn = NCCC[C@@H](N)C(=O)O; Orn = NCCC[C@H](N)C(=O)O
measure: MIC (µg/mL) against E. coli (ATCC 25922)
Answer with a number only, understood to be in µg/mL.

In plain terms, CC[C@H](C)[C@H](NC(=O)[C@H](CC(N)=O)NC(=O)[C@H](Cc1c[nH]c2ccccc12)NC(=O)[C@@H](CCCN)NC(=O)CNC(=O)[C@H](CCCN)NC(=O)[C@@H](CCCN)NC(=O)[C@@H](Cc1c[nH]c2ccccc12)NC(=O)[C@@H](Cc1ccc(O)cc1)NC(=O)[C@@H](CO)NC(=O)CCCCCC(C)C)C(=O)N[C@@H](CC(N)=O)C(=O)NCC(=O)NCC(N)=O [LL(Asn9)-NH2 (47)] ({Octanoyl(7-Me)}-[dS][dY][dW][dOrn][Orn]G[dOrn]WNINGG-NH2) has a documented MIC (µg/mL) against E. coli (ATCC 25922) of 8

====

- Test system: S. aureus USA300
- Format: cell-based, Staphylococcus aureus
- reportedConditions: microbroth dilution per CLSI, MHB, 18 h at 37 °C, visual inspection, three technical replicates
Where a SMILES comes first, the peptide text is derived from it. [ ]: non-standard residue; d: D form. The star is where a group is joined. ξ: configuration not given here. Octanoyl(7-Me) = CC(C)CCCCCC(=O)*; Hexanoyl(4ξ-Me) = CCC(C)CCC(=O)*; dOrn = NCCC[C@@H](N)C(=O)O; Orn = NCCC[C@H](N)C(=O)O
Listing: Antibacterial activity (MIC) S. aureus USA300 of selected compounds

Reported Antibacterial activity (MIC) S. aureus USA300 ( CCC(C)CCC(=O)N[C@H](CC(N)=O)C(=O)N[C@H](Cc1ccc(O)cc1)C(=O)N[C@H](Cc1c[nH]c2ccccc12)C(=O)N[C@H](CCCN)C(=O)N[C@@H](CCCN)C(=O)NCC(=O)N[C@H](CCCN)C(=O)N[C@@H](Cc1c[nH]c2ccccc12)C(=O)N[C@H](C(=O)N[C@H](C(=O)NCC(N)=O)[C@@H](C)CC)[C@@H](C)O (some centres unmarked) [Δ12LB-NH2 (9)] ({Hexanoyl(4ξ-Me)}-[dN][dY][dW][dOrn][Orn]G[dOrn]WTIG-NH2) ) = >32 mg/L

The reported value for CCC(C)CCC(=O)N[C@H](CC(N)=O)C(=O)N[C@H](Cc1ccc(O)cc1)C(=O)N[C@H](Cc1c[nH]c2ccccc12)C(=O)N[C@H](C)C(=O)N[C@@H](CCCN)C(=O)NCC(=O)N[C@H](CCCN)C(=O)N[C@@H](Cc1c[nH]c2ccccc12)C(=O)N[C@H](C(=O)N[C@H](C(=O)NCC(=O)N[C@@H](CO)C(N)=O)[C@@H](C)CC)[C@@H](C)O (stereo partly drawn) [LB(D-Ala4)-NH2 (20)] ({Hexanoyl(4ξ-Me)}-[dN][dY][dW][dA][Orn]G[dOrn]WTIGS-NH2) in terms of Antibacterial activity (MIC) S. aureus USA300 is >32 mg/L

Measured Antibacterial activity (MIC) S. aureus USA300 of CC[C@H](C)[C@H](NC(=O)[C@@H](NC(=O)[C@H](Cc1c[nH]c2ccccc12)NC(=O)[C@@H](CCCN)NC(=O)CNC(=O)[C@H](CCCN)NC(=O)[C@@H](CCCN)NC(=O)[C@@H](Cc1c[nH]c2ccccc12)NC(=O)[C@@H](C)NC(=O)[C@@H](CO)NC(=O)CCCCCC(C)C)[C@@H](C)O)C(=O)N[C@@H](CC(N)=O)C(=O)NCC(=O)NCC(N)=O [LL(D-Ala2)-NH2 (30)] ({Octanoyl(7-Me)}-[dS][dA][dW][dOrn][Orn]G[dOrn]WTINGG-NH2) : >32 mg/L

Documented Antibacterial activity (MIC) S. aureus USA300 of CCC(C)CCC(=O)N[C@H](CC(N)=O)C(=O)N[C@H](Cc1ccc(O)cc1)C(=O)N[C@H](Cc1c[nH]c2ccccc12)C(=O)N[C@H](CCCN)C(=O)N[C@@H](CCCN)C(=O)NCC(=O)N[C@H](CCCN)C(=O)N[C@@H](Cc1c[nH]c2ccccc12)C(=O)N[C@@H](CC(=O)O)C(=O)N[C@H](C(=O)NCC(N)=O)[C@@H](C)CC (some centres unmarked) [Δ12LB (Asp9)-NH2 (63)] ({Hexanoyl(4ξ-Me)}-[dN][dY][dW][dOrn][Orn]G[dOrn]WDIG-NH2) : >32 mg/L

Now examine the next entry.
The compound listed as CCC(C)CCC(=O)N[C@H](CC(N)=O)C(=O)N[C@H](Cc1ccc(O)cc1)C(=O)N[C@H](Cc1c[nH]c2ccccc12)C(=O)N[C@H](CCCN)C(=O)N[C@@H](CCCN)C(=O)NCC(=O)N[C@H](CCCN)C(=O)N[C@@H](Cc1c[nH]c2ccccc12)C(=O)N[C@@H](Cc1c[nH]c2ccccc12)C(=O)N[C@H](C(=O)NCC(N)=O)[C@@H](C)CC (some centres unmarked) [Δ12LB (Trp9)-NH2 (56)] ({Hexanoyl(4ξ-Me)}-[dN][dY][dW][dOrn][Orn]G[dOrn]WWIG-NH2) shows Antibacterial activity (MIC) S. aureus USA300 equal to 16 mg/L
